The following molecules are listed with their measured MIC values.
tested on: Pseudomonas aeruginosa; assay: Antibacterial activity against Pseudomonas aeruginosa after 16 to 18 hrs by serial dilution method; format: functional; conditions: Pseudomonas aeruginosa
Experimental endpoint: MIC (µg/mL)

Cc1cc(C)cc(-c2nnc(-c3ccccc3COc3ccccc3C)o2)c1: 12.5
Cc1ccccc1OCc1ccccc1-c1nnc(-c2ccc(Cl)cc2)o1: 25
Cc1cccc(OCc2ccccc2-c2nnc(-c3cc(C)cc(C)c3)o2)c1: 12.5
Cc1cc(C)cc(-c2nnc(-c3ccccc3COc3ccc(Cl)cc3)o2)c1: 12.5
Cc1ccc(OCc2ccccc2-c2nnc(-c3ccccc3)o2)cc1: 25
Cc1ccc(OCc2ccccc2-c2nn(CNc3cc(C)ccc3Cl)c(=S)o2)cc1: 25
Cc1ccc(OCc2ccccc2-c2nnc(-c3cccnc3Cl)o2)cc1: 12.5
Cc1cccc(CSc2nnc(-c3ccccc3COc3ccc(Cl)cc3)o2)c1: 12.5
COc1cc(-c2nnc(-c3ccccc3COc3ccccc3C)o2)cc(OC)c1OC: 6.25
Cc1ccccc1OCc1ccccc1-c1nnc(-c2ccccc2)o1: 25
Cc1cccc(OCc2ccccc2-c2nnc(SCc3ccccc3)o2)c1: 25
Cc1ccc(OCc2ccccc2-c2nn(CNc3cccc(C(F)(F)F)c3)c(=S)o2)cc1: 6.25
Clc1ccc(OCc2ccccc2-c2nnc(-c3cccc(Br)c3)o2)cc1: 25
Cc1cccc(CSc2nnc(-c3ccccc3COc3ccccc3C)o2)c1: 12.5
O=C(c1cc(Cl)ccc1NCn1nc(-c2ccccc2COc2ccc(Cl)cc2)oc1=S)C(F)(F)F: 25
Cc1ccc(OCc2ccccc2-c2nn(CN3CCOCC3)c(=S)o2)cc1: 12.5
Cc1ccc(OCc2ccccc2-c2nnc(-c3cccc4ncccc34)o2)cc1: 25
Clc1ccc(OCc2ccccc2-c2nnc(SCc3ccccc3)o2)cc1: 25
Cc1cccc(OCc2ccccc2-c2nnc(-c3ccc(Cl)cc3)o2)c1: 25
Cc1cccc(CSc2nnc(-c3ccccc3COc3cccc(C)c3)o2)c1: 12.5
Cc1cccc(OCc2ccccc2-c2nnc(-c3ccccc3)o2)c1: 25
Cc1cccc(OCc2ccccc2-c2nnc(-c3cccc4ncccc34)o2)c1: 25
CCSc1nnc(-c2ccccc2COc2ccc(Cl)cc2)o1: 25
FC(F)(F)c1cccc(NCn2nc(-c3ccccc3COc3ccc(Cl)cc3)oc2=S)c1: 6.25
Cc1ccccc1OCc1ccccc1-c1nn(CNc2ccc(Cl)cc2C(=O)C(F)(F)F)c(=S)o1: 25
Cc1ccc(OCc2ccccc2-c2nnc(-c3ccc(Cl)cc3)o2)cc1: 25
Cc1ccc(OCc2ccccc2-c2nn(CNc3ccc(Cl)cc3C(=O)C(F)(F)F)c(=S)o2)cc1: 25
Cc1cccc(OCc2ccccc2-c2nnc(-c3cccc(Br)c3)o2)c1: 25
COc1cc(-c2nnc(-c3ccccc3COc3cccc(C)c3)o2)cc(OC)c1OC: 6.25
Clc1ccc(OCc2ccccc2-c2nnc(-c3cccc4ncccc34)o2)cc1: 25
Cc1ccccc1OCc1ccccc1-c1nnc(-c2cccc(Br)c2)o1: 25
Cc1ccc(Cl)c(NCn2nc(-c3ccccc3COc3ccccc3C)oc2=S)c1: 25
Clc1ccc(CSc2nnc(-c3ccccc3COc3ccc(Cl)cc3)o2)cc1: 12.5
Cc1ccc(OCc2ccccc2-c2nnc(-c3cc(C)cc(C)c3)o2)cc1: 12.5
Cc1ccc(OCc2ccccc2-c2nnc(SCc3ccccc3)o2)cc1: 25
Cc1ccc(OCc2ccccc2-c2nnc(-c3ccccc3F)o2)cc1: 6.25
Cc1ccccc1OCc1ccccc1-c1nnc(SCc2ccc(Cl)cc2)o1: 12.5
Clc1ccc(OCc2ccccc2-c2nnc(-c3cccnc3Cl)o2)cc1: 12.5
Cc1cccc(OCc2ccccc2-c2nnc(SCc3ccc(Cl)cc3Cl)o2)c1: 6.25
Cc1ccccc1OCc1ccccc1-c1nn(CN2CCOCC2)c(=S)o1: 12.5
Cc1cccc(OCc2ccccc2-c2nnc(SCc3ccc(Cl)cc3)o2)c1: 12.5
Clc1ccc(OCc2ccccc2-c2nnc(-c3ccc(Cl)cc3)o2)cc1: 25
Cc1ccc(OCc2ccccc2-c2nnc(SCc3cccc(C)c3)o2)cc1: 12.5
